- tgt: Protein translocase subunit SecA (Escherichia coli (strain K12)) (UniProt P10408)
- Sequence (P10408 whole entry): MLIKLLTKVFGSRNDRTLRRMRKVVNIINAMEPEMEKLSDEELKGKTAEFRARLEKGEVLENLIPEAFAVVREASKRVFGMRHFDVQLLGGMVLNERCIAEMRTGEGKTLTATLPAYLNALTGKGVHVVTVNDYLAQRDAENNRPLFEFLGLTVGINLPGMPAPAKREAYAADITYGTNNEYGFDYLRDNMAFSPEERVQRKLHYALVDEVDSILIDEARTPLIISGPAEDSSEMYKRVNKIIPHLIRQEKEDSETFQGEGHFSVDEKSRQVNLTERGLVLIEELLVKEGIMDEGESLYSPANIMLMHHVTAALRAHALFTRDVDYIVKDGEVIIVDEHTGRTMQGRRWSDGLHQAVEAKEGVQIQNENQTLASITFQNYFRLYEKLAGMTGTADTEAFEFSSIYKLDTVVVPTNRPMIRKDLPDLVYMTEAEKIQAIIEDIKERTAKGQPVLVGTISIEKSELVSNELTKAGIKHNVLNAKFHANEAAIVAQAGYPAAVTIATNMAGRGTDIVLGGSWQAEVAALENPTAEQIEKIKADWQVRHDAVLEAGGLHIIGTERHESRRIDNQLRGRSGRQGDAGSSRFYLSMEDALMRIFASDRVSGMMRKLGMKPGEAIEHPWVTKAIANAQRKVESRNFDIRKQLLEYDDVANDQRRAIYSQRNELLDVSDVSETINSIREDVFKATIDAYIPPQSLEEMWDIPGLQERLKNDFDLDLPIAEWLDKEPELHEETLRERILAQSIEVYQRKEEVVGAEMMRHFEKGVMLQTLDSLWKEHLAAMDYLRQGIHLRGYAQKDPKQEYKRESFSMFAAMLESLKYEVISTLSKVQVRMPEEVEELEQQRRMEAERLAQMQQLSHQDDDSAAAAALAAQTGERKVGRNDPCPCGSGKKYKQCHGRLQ
- assay.notes: Assay to Identify E. coli SecA ATPase Inhibitors
- Format: functional
- Set-up: scale not given: direction of the effect not stated beside the values
- assay.conditions: 30 µM
Measured potencies and affinities stand elsewhere.
measured.endpoint: Percent Effect (%)
Your answer is read as %, so omit the unit and give the number.

Cc1nn(C)c(N(C)C)c1CNCc1cccc(CN(C)C(C)C)c1 :: -3.75

I would be grateful if you could share the reported Percent Effect for O=C(CN1CCCC1Cn1cncn1)Nc1cccnc1 (stereo not given) .
-3.94

I would be grateful if you could share the reported Percent Effect for COc1ccc(C2CCCCCN2S(=O)(=O)N(C)C)cc1 (stereo not given) .
-0.837

I would be grateful if you could share the reported Percent Effect for `Cc1cc(C[C@@H]2COC[C@@H]2NC(=O)Cn2c(=O)oc3ccccc32)on1` .
-0.169
